molecular target: Solute carrier family 2, facilitated glucose transporter member 1 (Homo sapiens); assay: ST_JUDE_LEISH: Cytotoxicity at 2uM final concentration against transgenic Leishmania Mexicana promastigotes LmGLUT1 that are glucose transport deficient and complemented with the human glucose transporter GLUT1. Activity is measured by DNA content using SYBR green in vitro; assay type: functional
For each record, write down the corresponding inhibition.
Give bare numbers, in %.

| compound | inhibition, % |
| --- | --- |
| COc1ccccc1CN1CCC(CNC(=O)c2cc(-c3ccc(N(C)C)cc3)cs2)C1 (stereo not drawn) | 15.2 |
| CC(C)Cc1ccc(N2CCN(CCCCNC(=O)c3ccc(NC(=O)c4ccc(Cl)c(Cl)c4)cc3)CC2)cc1 | 1.28 |

Turning now to a further compound:
Given the entry Cc1c(-c2ccccc2)ccc2[nH]cc(CC#N)c12 , report its measured inhibition.
1.56
